experiment: Quantitative High-Throughput drug screen in 47 multiple myeloma cell lines against the NCATS MIPE library collection: Delta47_JCRB cell viability assay (AID 1918925; note: nearly all actives have a fitted effect of over 45% in size); settings: Delta47 myeloma viability, CellTiter-Glo ATP, 48 h; series mostly up to 45.8 µM
Records with an inconclusive call do not appear. Active and inactive are the calls of the source. Calls come from the whole dose curve; as a rule, active = well fitted cell-killing curve with a large enough effect; inconclusive = small, poorly fitted or top-dose-only effect, or effect the other way; inactive = no such curve, though single readings can be large or run the other way.
Just give me one of these, please: active, inactive

// known answers, use as guide
Cn1cc(-c2ccncc2)c(-c2ccc(OCc3ccc4ccccc4n3)cc2)n1 = active
CC(C)c1cc(-c2n[nH]c(=O)n2-c2ccc3c(ccn3C)c2)c(O)cc1O = active
Cc1cc(Nc2cc(N3CCN(C)CC3)nc(C=Cc3ccccc3)n2)n[nH]1 = active
COc1cccc(-c2ccc(NC(=O)C3=C(C(=O)O)CCC3)c(F)c2)c1 = inactive

Turning now to a further compound:
Entry O=C(NC1CCNCC1)c1[nH]ncc1NC(=O)c1c(Cl)cccc1Cl : call = ?
active

###

target: Phenylethanolamine N-methyltransferase (Homo sapiens) (UniProt P11086); assay: Confirmatory Screen for Target Class Profiling of Small Molecule Inhibitors of Methyltransferases (AID 1745852); conditions: MTase-Glo luminescence, SAH detection, recombinant enzyme; measured here: PNMT max response; stronger effect = lower value
Sequence (P11086 whole entry, looked up): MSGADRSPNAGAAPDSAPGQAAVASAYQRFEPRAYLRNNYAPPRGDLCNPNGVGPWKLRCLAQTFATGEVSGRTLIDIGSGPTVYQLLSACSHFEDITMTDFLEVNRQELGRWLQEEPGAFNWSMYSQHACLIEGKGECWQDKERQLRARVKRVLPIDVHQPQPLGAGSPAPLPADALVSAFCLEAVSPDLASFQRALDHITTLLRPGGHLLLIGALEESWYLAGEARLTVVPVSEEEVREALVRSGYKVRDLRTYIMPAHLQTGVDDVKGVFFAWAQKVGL
Provide the recorded activity for the entries that follow.
One number for each entry, in %.

O=C(O)c1ccc2c(c1)nc(Nc1cccc(Cl)c1)c1ccncc12 = -66.6
OCCCNc1cc(-c2ccnc(Nc3cccc(Cl)c3)n2)ccn1 = -82.3
Nc1nccc(Oc2ccc(NC(=O)c3c[nH]cc(-c4ccc(F)cc4)c3=O)cc2F)c1Cl = -3
COc1cc2c(NC3CCN(C(C)C)CC3)nc(C3CCCCC3)nc2cc1OCCCN1CCCC1 = -4.49
Cc1nc(Nc2n[nH]c3c2CN(C(=O)N[C@H](CN(C)C)c2ccccc2)C3(C)C)c2sccc2n1 = -1.08
C=CCn1c(=O)c2cnc(Nc3ccc(N4CCN(C)CC4)cc3)nc2n1-c1cccc(C(C)(C)O)n1 = -20.6

List reported activity for each of these compounds:
1. O=C(O)C1(Cc2cccc(Nc3nccs3)n2)CCC(Oc2cccc(Cl)c2F)CC1 (stereo not given)
2. CC(C)c1cc(-c2n[nH]c(=O)n2-c2ccc3c(ccn3C)c2)c(O)cc1O
3. Cc1cc(Nc2cc(N3CCN(C)CC3)nc(Sc3ccc(NC(=O)C4CC4)cc3)n2)n[nH]1
4. COCCOc1ccc2c(c1)ncn2-c1ccc2cccc(N3CCC(N)CC3)c2n1

1. -68.7
2. -21.8
3. -1.21
4. -17.7

###

tested on: HEK293; assay: Cytotoxic Profiling of Annotated Libraries Using Quantitative High-Throughput Screening (AID 1296008); conditions: Five cell lines viability, CellTiter-Glo ATP luminescence, 48-72 h; note: nearly all actives have a fitted effect of over 60% in size
Records with an inconclusive call do not appear. Active and inactive are the calls of the source. Calls come from the whole dose curve; as a rule, active = well fitted inhibition curve with a large enough effect; inconclusive = small, poorly fitted or top-dose-only effect; inactive = flat fitted curve, though single readings scatter.
Just give me one of these, please: yes (1) for active, no (0) for inactive

// known answers, use as guide
CCCCCCCCCC(=O)N[C@@H](Cc1c[nH]c2ccccc12)C(=O)N[C@H](CC(N)=O)C(=O)N[C@@H](CC(=O)O)C(=O)N[C@@H]1C(=O)NCC(=O)N[C@@H](CCCN)C(=O)N[C@@H](CC(=O)O)C(=O)N[C@H](C)C(=O)N[C@@H](CC(=O)O)C(=O)NCC(=O)N[C@H](CO)C(=O)N[C@@H]([C@@H](C)CC(=O)O)C(=O)N[C@@H](CC(=O)c2ccccc2N)C(=O)O[C@@H]1C = no (0)
CC(=O)SC[C@@H](C)C(=O)N1CCC[C@H]1C(=O)N[C@@H](Cc1ccccc1)C(=O)O = no (0)
C[C@@H](Oc1cc(-n2cnc3ccc(CN4CCN(C)CC4)cc32)sc1C(N)=O)c1ccccc1C(F)(F)F = yes (1)
CN[C@H]1CCc2cc(OC)c(OC)c(OC)c2-c2ccc(OC)c(=O)cc21 = yes (1)
Cc1ccc(C(N)=O)cc1Nc1nccc(-c2cn(C(C)C)c3cnccc23)n1 = yes (1)

Entry Cc1cc(Nc2cc(NC(=O)c3c(Cl)cccc3Cl)ccn2)nc(N)n1 : call = ?
yes (1)

Entry Cc1ccc(CN2CCNCC2)cc1NC(=O)CNc1ccc(F)c(F)c1 : call = ?
no (0)
